EC50 reference
- system tested: GHSR1a (Homo sapiens, UniProt Q92847)
- Sequence (Q92847 whole entry): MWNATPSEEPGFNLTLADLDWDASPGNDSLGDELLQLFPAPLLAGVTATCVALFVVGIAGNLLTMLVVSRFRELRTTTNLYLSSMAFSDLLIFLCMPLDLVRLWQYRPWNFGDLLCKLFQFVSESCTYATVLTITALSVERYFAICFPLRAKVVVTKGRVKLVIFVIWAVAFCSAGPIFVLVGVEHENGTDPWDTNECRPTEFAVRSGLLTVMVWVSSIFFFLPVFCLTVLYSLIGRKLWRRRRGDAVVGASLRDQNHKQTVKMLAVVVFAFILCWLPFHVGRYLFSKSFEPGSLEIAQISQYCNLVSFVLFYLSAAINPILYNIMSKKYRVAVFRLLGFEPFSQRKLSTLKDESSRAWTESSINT
- assay protocol: Calcium FLIPR assay, GHSR-1a agonism
- particulars: HEK293/GHSR1a cells

Recorded EC50, per entry:
CC(NC(=O)N(C)C1CCN(C)CC1)c1ccc(C2OCCO2)c(Cl)c1Cl (centres unmarked) [Compound H0645]; 0.287 µM
CC(NC(=O)N(C)C1CCN(C)CC1)c1ccc(-c2csc(C3CC3)n2)c(Cl)c1Cl (centres unmarked) [Compound H0841]; > 30 µM

[ask] Specify reported EC50 for the compound shown: CC(NC(=O)N(Cc1ccc(CO)cc1)C1CCN(C)CC1)c1ccc(-c2cn[nH]c2)c(Cl)c1Cl (centres unmarked) [Compound H0553]
[reply] > 30 µM

[ask] Specify reported EC50 for the compound shown: CC(NC(=O)N(C)C1CCN(C)CC1)c1ccc(C#Cc2cccs2)c(Cl)c1Cl (centres unmarked) [Compound H0737]
[reply] > 30 µM

[ask] Specify reported EC50 for the compound shown: Cc1nccnc1-c1ccc(C(C)NC(=O)N(C)C2CCN(C)CC2)c(Cl)c1Cl (centres unmarked) [Compound H0831]
[reply] > 30 µM

[ask] Specify reported EC50 for the compound shown: CC(NC(=O)N(C)C1CCN(C)CC1)c1cnc(Cl)c(Cl)c1Cl (centres unmarked) [Compound H0876]
[reply] > 30 µM

[ask] Specify reported EC50 for the compound shown: Cc1nccnc1-c1ccc(C(CC2CC2)NC(=O)N(C)C2CCN(C)CC2)c(Cl)c1Cl (centres unmarked) [Compound H0844]
[reply] > 30 µM

[ask] Specify reported EC50 for the compound shown: C#Cc1ccc(C(C)NC(=O)N(O)C2CCN(C)CC2)c(Cl)c1Cl (centres unmarked) [Compound H0745]
[reply] 0.097 µM

---

- system tested: GHSR1a (Homo sapiens, UniProt Q92847)
- assay protocol: Calcium FLIPR assay, GHSR-1a agonism
- particulars: HEK293/GHSR1a cells
observable: EC50 (nM)

Recorded EC50, per entry:
CC(NC(=O)N(C)C1CCN(C)CC1)c1ccc(-c2ccc(C=O)s2)c(Cl)c1Cl (stereo not shown) [Compound H0652]; 5
CCc1cncc(-c2ccc(C(C)NC(=O)N(C)C3CCN(C)CC3)c(Cl)c2Cl)c1 (stereo not shown); 42
CC(NC(=O)N(C)C1CCN(C)CC1)c1ccc(OC2CC2)c(Cl)c1Cl (stereo not shown); 50
CC(NC(=O)N(C)C1CCN(C)CC1)c1ccc(-c2cnc(-n3ccnc3)nc2)c(Cl)c1Cl (stereo not shown); 149
CC(NC(=O)N(C)C1CCN(C)CC1)c1ccc(-c2cnc(NC(=O)C3CC3)nc2)c(Cl)c1Cl (stereo not shown); 24

(1) COc1cncc(-c2ccc(C(C)NC(=O)N(C)C3CCN(C)CC3)c(Cl)c2Cl)c1 (stereo not shown)
(2) CC(NC(=O)N(C)C1CCN(C)CC1)c1ccc(-c2ccc(CO)s2)c(Cl)c1Cl (stereo not shown)
(3) CC(NC(=O)N(C)C1CCN(C)CC1)c1ccc(-c2cncc(C#N)n2)c(Cl)c1Cl (stereo not shown)
[ask] Please list these compounds in decreasing order of EC50. List the labels, following the order given in the request.
[reply] 1, 3, 2
(1: 31 nM, 3: 20 nM, 2: 9 nM)

---

- system tested: UniProtKB Q92847
- assay protocol: Calcium FLIPR assay, GHSR-1a agonism
- particulars: HEK293/GHSR1a cells
observable: EC50 (nM)

Recorded EC50, per entry:
C#Cc1ccc(C(C)NC(=O)N(OCC)C2CCN(C)CC2)c(Cl)c1Cl (stereo not shown) [Compound H0749]; 397
COc1ccc(C(C#N)NC(=O)N(C)C2CCN(C)CC2)c(Cl)c1Cl (stereo not shown) [Compound H0669]; 5
CC(NC(=O)N(C)C1CCN(C)CC1)c1ccc(-c2nc(N3CCOCC3)nc(N3CCOCC3)n2)c(Cl)c1Cl (stereo not shown) [Compound H0796]; 3000

(A) COc1cccc(-c2ccc(C(C)NC(=O)N(C)C3CCN(C)CC3)c(Cl)c2Cl)c1 (stereo not shown) [Compound H0606]
(B) CC(NC(=O)N(C)C1CCN(C)CC1)c1ccc(-c2cccs2)c(Cl)c1Cl (single isomer, unassigned) [Compound H0563]
[ask] I'm curious, which of these has a smaller EC50 number: A or B ? Mark your selection by writing its label.
[reply] B
(B: 3 nM, A: 31 nM)

(I) CN1CCC(N(C)C(=O)NC(C#N)c2ccc(-c3cncc(C#N)c3)c(Cl)c2Cl)CC1 (stereo not shown) [Compound H0666]
(II) COc1ccc(C(C)(C#N)NC(=O)N(C)C2CCN(C)CC2)c(Cl)c1Cl (stereo not shown) [Compound H0671]
[ask] I'm curious, which of these has a smaller EC50 number: I or II ? Mark your selection by writing its label.
[reply] I
(I: 21 nM, II: 60 nM)

---

- System: C57BL/6J mice
- assay protocol: Food intake test in mouse (GHSR1a antagonists)
- Type: in vivo
- particulars: Mus musculus, ip, 1 h, i.p. 10 mg/kg
observable: inhibition in vivo at 10 mg/kg (%)
// return numeric value only (unit: %, not printed)

[ask] Specify reported inhibition in vivo at 10 mg/kg for the compound shown: CC(NC(=O)N(C)C1CCN(C)CC1)c1ccc(C#Cc2cscn2)c(Cl)c1Cl (stereo not drawn)
[reply] 91

[ask] Specify reported inhibition in vivo at 10 mg/kg for the compound shown: CC(NC(=O)N(C)C1CCN(C)CC1)c1ccc(-c2cccs2)c(Cl)c1Cl (single isomer, unassigned)
[reply] 65

[ask] Specify reported inhibition in vivo at 10 mg/kg for the compound shown: CC(NC(=O)N(C)C1CCN(C)CC1)c1ccc(C#CC2CC2)c(Cl)c1Cl (stereo not drawn)
[reply] 91

---

- system tested: UniProt:Q92847
- assay protocol: Calcium FLIPR assay, GHSR-1a agonism
- particulars: HEK293/GHSR1a cells
pEC50: −log10 of the molar value.
pEC50 reference

Recorded pEC50, per entry:
CC(NC(=O)N(C)C1CCN(C)CC1)c1ccc(C2=CCCCC2)c(Cl)c1Cl (stereo not shown); 6.40
CC[C@H](NC(=O)N(C)C1CCN(C)CC1)c1ccc(-c2cnccn2)c(Cl)c1Cl; < 4.52
COCc1cncc(-c2ccc(C(C)NC(=O)N(C)C3CCN(C)CC3)c(Cl)c2Cl)c1 (stereo not shown); < 4.52
CON(C)C(=O)c1ccc(-c2ccc(C(C)NC(=O)N(C)C3CCN(C)CC3)c(Cl)c2Cl)s1 (stereo not shown); < 6.00
CN1CCC(N(C)C(=O)N[C@H](c2ccc(-c3cnccn3)c(Cl)c2Cl)C(F)(F)F)CC1; < 4.52

[ask] Specify reported pEC50 for the compound shown: COc1ccc(-c2ccc(C(C)NC(=O)N(C)C3CCN(C)CC3)c(Cl)c2Cl)cn1 (stereo not shown)
[reply] < 4.52

[ask] Specify reported pEC50 for the compound shown: CC(NC(=O)N(C)[C@@H]1CCN(C)CC1(C)C)c1ccc(-c2cnccn2)c(Cl)c1Cl (stereo partly shown)
[reply] < 4.52

---

- system tested: GHSR1a (Homo sapiens, UniProt Q92847)
- assay protocol: Calcium FLIPR assay, GHSR-1a antagonism (reduction of ghrelin response)
- particulars: HEK293/GHSR1a cells, ghrelin 10 nM
observable: IC50 (µM)

Recorded IC50, per entry:
CC(NC(=O)N(C)C1CCN(C)CC1)c1ccc(-c2cnc3[nH]ncc3c2)c(Cl)c1Cl (centres unmarked); 0.071
CC(NC(=O)N(C)C1CCN(C)CC1)c1ccc(-c2cnc(N(C)C)nc2)c(Cl)c1Cl (centres unmarked); 0.375
COc1ncc(-c2ccc(C(C)NC(=O)N(C)C3CCN(C)CC3)c(Cl)c2Cl)c(OC)n1 (centres unmarked); 0.274

(I) CC(NC(=O)N(C)C1CCN(C)CC1)c1ccc(-c2cnc(N3CCN(C)CC3)c(C#N)c2)c(Cl)c1Cl (centres unmarked)
(II) CC(NC(=O)N(C)C1CCN(C)CC1)c1ccc(CF)c(Cl)c1Cl (centres unmarked)
(III) CN1CCC(N(C)C(=O)NC(COCc2cccc(CO)c2)c2ccc(-c3ccsc3)c(Cl)c2Cl)CC1 (centres unmarked)
(IV) CC(NC(=O)N(C)C1CCN(C)CC1)c1ccc(-c2cccnc2)c2ccccc12 (centres unmarked)
(V) CN1CCC(N(C)C(=O)NC(CC2CC2)c2ccc(-c3cncc(N)c3)c(Cl)c2Cl)CC1 (centres unmarked)
[ask] Please list these compounds in decreasing order of IC50. List the labels, following the order given in the request.
[reply] I, IV, III, V, II
(I: 2.3 µM, IV: 0.233 µM, III: 0.054 µM, V: 0.02 µM, II: 0.013 µM)

---

- system tested: GHSR1a (Homo sapiens)
- assay protocol: Calcium FLIPR assay, GHSR-1a agonism
- particulars: HEK293/GHSR1a cells
observable: EC50

Recorded EC50, per entry:
CC(NC(=O)N(C)C1CCN(C)CC1)c1ccc(-n2ccnn2)c(Cl)c1Cl (centres unmarked); 0.03 µM
CC(NC(=O)N(C)C1CCN(C)CC1)c1ccc(C#CC2CC2)c(Cl)c1Cl (centres unmarked) [Compound H0764]; 0.014 µM
CC(NC(=O)N(C)C1CCN(C)CC1)c1ccc(-c2cncc(CF)c2)c(Cl)c1Cl (centres unmarked); > 30 µM

[ask] Specify reported EC50 for the compound shown: CC(NC(=O)N(C)C1CCN(C)CC1)c1ccc(-c2nc(C3CC3)no2)c(Cl)c1Cl (centres unmarked)
[reply] 0.006 µM

[ask] Specify reported EC50 for the compound shown: CC(NC(=O)N(C)C1CCN(C)CC1)c1ccc(-c2c[nH]cn2)c(Cl)c1Cl (centres unmarked)
[reply] 0.015 µM

[ask] Specify reported EC50 for the compound shown: CN1CCC(N(C)C(=O)NC(COCc2cccc(CO)c2)c2ccc(-c3ccsc3)c(Cl)c2Cl)CC1 (centres unmarked)
[reply] > 30 µM
